Reference source for all entries: patent US8809539B2

Parameter EC50: see the listing below.
# TGT: Edg1 (S1P1 receptor) (Homo sapiens)
# Construct: expressed in transfected cells; host or cells: HEK 293 or CHOK1 (membranes)
# ASSAY_NAME: GTP-γ-35S binding, agonist activity at Edg1 (S1P1)
# Type: biochemical
# CONDITION_PARAMETERS: membranes of transfected HEK 293 or CHOK1 cells, [35S]GTP-γ-S; read-out: In-Vitro potency EC50 (nM) Edg1
Hi! Could you send only the number? It should be in nM, unit omitted.

Which value of EC50 has been reported for CO/N=C(/c1ccco1)c1nc(-c2ccc(CN3CCC(C(=O)O)(C(=O)O)CC3)cc2)no1 in the records? 2.2

---

Item-by-item account of EC50
# TGT: Edg1 (S1P1 receptor) (Homo sapiens, UniProt P21453)
# Construct: expressed in transfected cells; host or cells: HEK 293 or CHOK1 (membranes)
# Sequence (P21453 whole entry): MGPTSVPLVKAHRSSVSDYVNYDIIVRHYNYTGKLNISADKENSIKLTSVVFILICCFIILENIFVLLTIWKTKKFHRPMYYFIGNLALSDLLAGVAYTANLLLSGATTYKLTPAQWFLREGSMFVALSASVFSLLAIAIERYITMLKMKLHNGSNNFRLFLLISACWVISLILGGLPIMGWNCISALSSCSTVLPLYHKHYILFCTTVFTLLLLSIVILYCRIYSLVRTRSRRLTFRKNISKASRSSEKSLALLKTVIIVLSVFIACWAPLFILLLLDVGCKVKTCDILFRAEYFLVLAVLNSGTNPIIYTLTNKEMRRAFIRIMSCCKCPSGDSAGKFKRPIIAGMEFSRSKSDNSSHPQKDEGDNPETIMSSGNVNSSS
# ASSAY_NAME: GTP-γ-35S binding, agonist activity at Edg1 (S1P1)
# Type: biochemical
# CONDITION_PARAMETERS: membranes of transfected HEK 293 or CHOK1 cells, [35S]GTP-γ-S; read-out: In-Vitro potency EC50 (nM) Edg1
The reply should contain only the number, in nM.

Examples with their reported EC50 follow.
C=C(C)[C@@H]1CC=C(c2nc(-c3ccc(CN4CCC(C(=O)O)(C(=O)O)CC4)cc3)no2)CC1 [Example 25] :: 1.7
COC(=O)C1(C(=O)O)CC(N(C)Cc2ccc(-c3noc(-c4ccc(CC(C)C)cc4)n3)cc2)C1 (single isomer, unassigned) [Example 54] :: 11.8
O=C(O)C1(C(=O)O)CCN(Cc2ccc(-c3noc(-c4ccc(-c5ccccc5)cc4)n3)cc2)CC1 [Example 15] :: 0.7

From here, focus on the item given below.
Look up EC50: CC(C)(C)C(=O)COC(=O)C1(C(=O)O)CCN(Cc2ccc(-c3noc(-c4ccc(-c5ccccc5)c(F)c4)n3)cc2)CC1 [Example 62] 6.3
